# target_desc: ALK^G1202R (Homo sapiens, UniProt Q9UM73, G1202R)
# assay_procedure: HTRF KinEASE-TK kinase inhibitory assay, ALK^G1202R
# Assay type: biochemical
measurement_type: IC50 (nM)
One number for each entry, in nM.

## Task # query: IC50 of entry C[C@@H](Oc1cc(-c2cnn(C)c2)cnc1N)c1ccccc1-c1ccccc1
## Result 195

----------
# target_desc: ROS1 (Homo sapiens)
# assay_procedure: HTRF KinEASE-TK kinase inhibitory assay, ROS1
# Type: biochemical
# condition_summary: read-out: ROS1 IC50; average of two independent experiments
measurement_type: pIC50
Answers are plain numbers, as −log10 of the molar value.

## Task I'm curious: which pIC50 was measured for C[C@@H](Oc1cc(-c2ccc3c(c2)NC(=O)C32CCN(C)CC2)cnc1N)c1c(Cl)ccc(F)c1Cl [SMU-B, reference compound] tested on ROS1 (Homo sapiens)?
## Result 8.83

----------
Kindly supply the reported inhibition at 1 µM values for the records listed here.
# target_desc: ROS1 (Homo sapiens)
# assay_procedure: HTRF KinEASE-TK kinase inhibitory assay, ROS1
# Type: biochemical
# condition_summary: read-out: ROS1 Inhibition (1μM)
One number for each entry, in %.

Study these solved cases before continuing.
C[C@@H](Oc1cc(-c2ccnn2C)cnc1N)c1ccccc1-c1ccccc1: 99
CCCn1cc(-c2cnc(N)c(O[C@H](C)c3ccccc3F)c2)cn1: 91
CCn1cc(-c2cnc(N)c(O[C@H](C)c3ccccc3-c3ccccc3)c2)cn1: 99
C[C@@H](Oc1cc(-c2cnn(C3CCNCC3)c2)cnc1N)c1c(Cl)ccc(F)c1Cl [Crizotinib, reference compound]: 101
CCCn1cc(-c2cnc(N)c(O[C@H](C)c3ccccc3)c2)cn1: 64

Hey, quick one: what's inhibition at 1 µM for each of these?
1. C[C@@H](Oc1cc(-c2cccn2C)cnc1N)c1ccccc1-c1ccccc1
2. C[C@@H](Oc1cc(-c2ccnn2C)cnc1N)c1ccccc1-c1ccnn1C

## Result
1. 90
2. 86

Hey, quick one: what's inhibition at 1 µM for each of these?
1. CCCn1cc(-c2cnc(N)c(O[C@H](C)c3ccccc3-c3ccnn3C)c2)cn1
2. C[C@@H](Oc1cc(-c2cnn(C)c2)cnc1N)c1ccccc1
3. C[C@@H](Oc1cc(-c2cnn(C)c2)cnc1N)c1ccccc1-c1ccccc1
4. C[C@@H](Oc1cc(-c2cnn(C)c2)cnc1N)c1ccccc1-c1ccnn1C
5. C[C@@H](Oc1cc(-c2cnn(C)c2)cnc1N)c1ccccc1F

## Result
1: 90; 2: 101; 3: 103; 4: 74; 5: 100

----------
# target_desc: Ba/F3 CD74-ROS1^L2026M cell (Homo sapiens, UniProt P04233+P08922, L2026M)
# assay_procedure: Antiproliferative CCK-8 assay, Ba/F3 CD74-ROS1^L2026M
# Assay type: cell-based
# condition_summary: read-out: Ba/F3 cellular activities (nM) CD74-ROS1^L2026M; 72 h exposure, IC50, at least three independent experiments
measurement_type: IC50 (nM)
Give bare numbers, in nM.

## Task # query: IC50 of entry C[C@@H](Oc1cc(-c2cnn(C)c2)cnc1N)c1ccccc1-c1ccccc1
## Result 168

----------
Kindly supply the reported inhibition at 1 µM values for the records listed here.
# target_desc: UniProt:Q9UM73
# assay_procedure: HTRF KinEASE-TK kinase inhibitory assay, ALK wild type
# Assay type: biochemical
# condition_summary: read-out: ALK Inhibition (1μM)
Numbers only, in %.

Study these solved cases before continuing.
CCCn1cc(-c2cnc(N)c(O[C@H](C)c3ccccc3)c2)cn1: 37
CCn1cc(-c2cnc(N)c(O[C@H](C)c3ccccc3)c2)cn1: 65
C[C@@H](Oc1cc(-c2cnn(C)c2)cnc1N)c1ccccc1F: 73
CCn1cc(-c2cnc(N)c(O[C@H](C)c3ccccc3-c3ccccc3)c2)cn1: 92
C[C@@H](Oc1cc(-c2cnn(C)c2)cnc1N)c1ccccc1-c1ccccc1: 100
CCn1cc(-c2cnc(N)c(O[C@H](C)c3ccccc3-c3ccnn3C)c2)cn1: 59

Hey, quick one: what's inhibition at 1 µM for each of these?
1. CCn1cc(-c2cnc(N)c(O[C@H](C)c3ccccc3F)c2)cn1
2. C[C@@H](Oc1cc(-c2ccnn2C)cnc1N)c1ccccc1-c1ccccc1
3. C[C@@H](Oc1cc(-c2cnn(C)c2)cnc1N)c1ccccc1
4. CCCn1cc(-c2cnc(N)c(O[C@H](C)c3ccccc3-c3ccnn3C)c2)cn1
5. C[C@@H](Oc1cc(-c2cccn2C)cnc1N)c1ccccc1-c1ccccc1

## Result
[69, 99, 65, 42, 44]
